Data credit: PubChem BioAssay

Biological target: Dickkopf-related protein 1 (Homo sapiens)
Assay: small molecules binding DKK1 protein – biochemical, small-molecule microarray, 635 nm fluorescence scan, primary screen (AID 1106);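 note: score merges emission near 667 nm with signal to noise over three replicate slides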
Conditions: higher = more signal
Short version: composite z-score at least 0.2 is met, less is not met.

[
  {
    "Compound": "CCCCC(=O)N(Cc1ccccc1F)[C@@H]1CC(C(=O)NCCO)=C[C@H](Oc2c(I)cc(CO)cc2OC)[C@H]1O",
    "Category Label": "met"
  },
  {
    "Compound": "COC(=O)c1c2oc(c1C(=O)OC)C(=O)N[C@H](Cc1ccccc1)Cn1nncc1C1(CCCCC1)NC(=O)N[C@H](CO)CC2",
    "Category Label": "met"
  },
  {
    "Compound": "CC(C)(C)OC(=O)CC[C@@]1(C(N)=O)N=C(c2ccc(OCCCO)cc2)O[C@@H]1c1ccccc1N=[N+]=[N-]",
    "Category Label": "not met"
  },
  {
    "Compound": "[N-]=[N+]=NCc1ccccc1C[C@]1(C(=O)N2CCOCC2)N=C(c2ccc(OCCCO)cc2)O[C@H]1c1ccccc1",
    "Category Label": "not met"
  },
  {
    "Compound": "Cc1ccc(S[C@]2(C(=O)NCC(F)(F)F)CC(=O)N(C3Cc4ccccc4C3)[C@@H]2c2ccc(CO)cc2I)cc1",
    "Category Label": "not met"
  }
]

Entry CCCNC(=O)[C@@]1(c2ccc([N+](=O)[O-])cc2)CC(=O)N(CC23CC4CC(CC(C4)C2)C3)[C@@H]1c1ccc(CO)cc1I : is its composite z-score no less than 0.2? not met

Is it the case that CCCNC(=O)[C@@]1(C)c2ccccc2C(=O)N(Cc2ccc(OC(F)(F)F)cc2)[C@H]1c1ccc(CO)cc1 has composite z-score reaching or exceeding 0.2? not met

----------
Biological target: Luciferin 4-monooxygenase (Photinus pyralis)
Assay: inhibition of purified Photinus pyralis luciferase – biochemical, luminescence, purified enzyme, 2006 set, primary screen (AID 1141);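 note: cell-free assay with purified firefly luciferase at 100 ng per well in PBS; test concentration not given here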
Settings: purified firefly luciferase, SteadyGlo luminescence, 30 min; higher = more signal, called active from +8 up or from −8 down
Property Name: z-score
Answer as a number with no unit attached.

Recorded z-score, per entry:
[
  {
    "Compound": "C=CCC(OC(C)=O)[C@@H]1[C@@H](N(Cc2ccc(-c3cccc(C(F)(F)F)c3)o2)C(=O)Cc2ccc(OC)cc2)c2cc(OCCCO)ccc2N1C(=O)Cc1ccc(OC)cc1 (stereo not given in full)",
    "z-score": 0.781
  },
  {
    "Compound": "COC(=O)[C@@]1(Cc2ccc(F)cc2)[C@H]2c3cc(C(=O)N4CCCC4)n(Cc4ccc(Cl)c(C(F)(F)F)c4)c3C[C@H]2CN1C(=O)c1ccccc1",
    "z-score": 1.18
  },
  {
    "Compound": "O=C1O[C@@H](c2ccccc2)[C@@H](c2ccccc2)N2[C@@H](c3ccc(O)cc3)[C@]3(C(=O)Nc4ccc(C#CCCO)cc43)[C@@H](C(=O)O)[C@H]12",
    "z-score": -1.18
  },
  {
    "Compound": "C=C[C@H](C)[C@H](OC(=O)Nc1ccc(OC)cc1)c1ccc(O)c2ccccc12",
    "z-score": -3.78
  },
  {
    "Compound": "O=C1OCC=C[C@H]2OC34C=CCN(c5ccc6ccccc6c5)C(=O)[C@H]3N(CCO)C(=O)[C@@H]4[C@@H]12 (stereo not given in full)",
    "z-score": -0.646
  },
  {
    "Compound": "CC(C)N1C(=O)c2ccccc2[C@](C)(C(=O)NC2CC2)[C@@H]1c1ccc(CO)cc1",
    "z-score": 1.34
  },
  {
    "Compound": "C=CCC(OC(C)=O)[C@@H]1[C@@H](N(Cc2cc3ccccc3o2)C(=O)c2cccc3ccccc23)c2cc(OCCCO)ccc2N1C(=O)Cc1ccc2ccccc2c1 (stereo not given in full)",
    "z-score": 0.209
  },
  {
    "Compound": "CCCNC(=O)[C@@]1(C)c2ccccc2C(=O)N(Cc2cc(C(F)(F)F)cc(C(F)(F)F)c2)[C@H]1c1ccc(CO)cc1",
    "z-score": 0.517
  },
  {
    "Compound": "COc1ccc([Si](C)(C)[C@@H]2[C@@H](CCO)O[C@]3(C(=O)N(Cc4cccc(N(C=O)c5ccccc5)c4)c4ccccc43)[C@H]2C)cc1",
    "z-score": 0.505
  }
]

Alright, here's another compound for you.
Entry CN1C(=O)C2C=CC(C(O)c3ccccc3)N(NC(=O)OC(C)(C)C)C2C1=O (stereo not given) : z-score on Luciferin 4-monooxygenase (Photinus pyralis) = 0.22

----------
This section presents compounds with their documented composite z-score values.
Target: Torsin-1A (Homo sapiens) (UniProt O14656)
Sequence (O14656 whole entry, looked up): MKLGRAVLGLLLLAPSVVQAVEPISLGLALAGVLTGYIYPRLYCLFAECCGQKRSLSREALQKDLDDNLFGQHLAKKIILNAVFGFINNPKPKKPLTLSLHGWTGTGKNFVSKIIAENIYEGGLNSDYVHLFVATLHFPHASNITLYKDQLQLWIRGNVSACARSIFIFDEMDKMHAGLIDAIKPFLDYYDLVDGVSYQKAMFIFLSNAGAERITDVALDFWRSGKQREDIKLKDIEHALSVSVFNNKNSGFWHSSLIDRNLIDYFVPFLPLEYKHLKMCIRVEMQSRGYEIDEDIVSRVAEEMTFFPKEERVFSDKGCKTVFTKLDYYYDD
Test: TOR1A wild-type binding on microarray – cell lysate, small-molecule microarray, lysate, 635/667 nm, primary screen (AID 1149)
Settings: COS7 hTOR1A-WT lysate, 635 nm fluorescence, higher = more signal
Quick one: just the number, no unit, thanks!

[
  {
    "Compound": "O=C1OCC=C[C@H]2OC34C=CCN(c5ccc(Cl)cc5)C(=O)[C@H]3N(CCCO)C(=O)[C@@H]4[C@@H]12 (stereo partly specified)",
    "composite z-score": 0.626
  },
  {
    "Compound": "C=C(CCCC)C(=O)CC[C@@H](OC(=O)c1ccccc1-c1ccccc1C(=O)O)c1ccc(CO)o1",
    "composite z-score": 1.29
  },
  {
    "Compound": "COC(=O)[C@@]1(Cc2ccc(OC)cc2)[C@H]2c3cc(C(=O)N4CCCC4)n(C[C@H](O)CO)c3C[C@H]2CN1C(=O)c1ccccc1",
    "composite z-score": -0.467
  },
  {
    "Compound": "COCCOC(=O)N1C(=O)[C@@]2(c3cc(C#Cc4ccc(OC)cc4)ccc31)[C@H](c1ccc(O)cc1)N1[C@H](c3ccccc3)[C@H](c3ccccc3)OC(=O)[C@H]1[C@@H]2C(=O)N1CCN(c2ncccn2)CC1",
    "composite z-score": 0.487
  },
  {
    "Compound": "[N-]=[N+]=NCc1ccccc1C[C@]1(C(=O)NCCN2CCOCC2)N=C(c2ccc(OCCCO)cc2)O[C@H]1c1ccccc1CN=[N+]=[N-]",
    "composite z-score": 0.0892
  }
]

In plain terms, O=C(NCCN1CCOCC1)[C@@H]1c2ccccc2C(=O)N(Cc2cc(F)cc(C(F)(F)F)c2)[C@H]1c1ccc(CO)cc1 has a documented composite z-score of 0.543

----------
Target: Homeobox protein Hox-A13 (Mus musculus) (UniProt Q62424)
Sequence (Q62424 whole entry, looked up): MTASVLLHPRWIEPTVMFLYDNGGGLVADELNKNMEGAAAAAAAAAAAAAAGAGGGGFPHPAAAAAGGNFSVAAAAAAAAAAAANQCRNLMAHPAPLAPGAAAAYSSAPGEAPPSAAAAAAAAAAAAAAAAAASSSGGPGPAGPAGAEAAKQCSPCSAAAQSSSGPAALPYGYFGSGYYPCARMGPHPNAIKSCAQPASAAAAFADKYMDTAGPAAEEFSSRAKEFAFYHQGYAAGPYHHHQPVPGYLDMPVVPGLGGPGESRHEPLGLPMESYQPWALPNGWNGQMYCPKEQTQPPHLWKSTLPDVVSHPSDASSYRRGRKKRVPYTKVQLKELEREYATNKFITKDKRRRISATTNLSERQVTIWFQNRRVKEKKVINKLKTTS
Assay: disruptors of Hoxa13 oligonucleotide interaction – biochemical, fluorescence polarization, labeled oligonucleotide, primary screen (AID 1185)
Details: Hoxa13:DNA binding, 15 min, higher = more signal, called active from +8 up or from −8 down
# if value of z-score reaches -3, tag True; if it stays below, tag False

Before answering, review these 4 worked examples.
[
  {
    "Compound": "O=C1O[C@@H](c2ccccc2)[C@@H](c2ccccc2)N2[C@@H](c3ccccc3OCCO)[C@]3(C(=O)Nc4ccc(C#CC5(O)CCCCCC5)cc43)[C@@H](C(=O)NC[C@H](O)c3ccccc3)[C@H]12",
    "Category Label": "True"
  },
  {
    "Compound": "CC(C)NC(=O)[C@@]1(c2ccc([N+](=O)[O-])cc2)CC(=O)N(C(C)C)[C@@H]1c1ccc(CO)cc1",
    "Category Label": "True"
  },
  {
    "Compound": "CCCCCN1CC=CC23O[C@@H]4C=CCCOC(=O)C4[C@H]2C(=O)N(CCCO)[C@@H]3C1=O (stereo partly specified)",
    "Category Label": "False"
  },
  {
    "Compound": "O=C(NCC(O)CO)[C@@]1(Cc2ccccc2)COC(c2ccc(OCCCO)cc2)=N1 (stereo partly specified)",
    "Category Label": "False"
  }
]

From here, focus on the item given below.
Could you tell me if the measured z-score of O=c1cccc(-c2cccc3ccccc23)o1 reaches -3 or more? True

----------
Assay: binders of probe aHhip on microarray, primary screen, stem cell growth factor project, biochemical, small-molecule microarray, fluorescence 635/667 (AID 1087);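 note: score merges spot fluorescence at 667nm with spot signal to noise ratio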
Conditions: higher = more signal
Property Name: composite z-score

Documented composite z-score of O=C1[C@H]2C=C(Br)[C@H](C[C@@H]2OCCOCCO)[C@@]12CO2 : -0.0994

# compound [N-]=[N+]=NCc1ccccc1[C@@H]1OC(c2ccc(OCCCO)cc2)=N[C@]1(Cc1ccccc1N=[N+]=[N-])C(N)=O ; its composite z-score = -0.0994

composite z-score reading for C=CCN1C(=O)[C@@]2(O[C@@H](CCO)[C@H]([Si](C)(C)c3ccc(OC)cc3)[C@H]2C)c2cc(NC(C)=O)ccc21 : 0.294

Measured composite z-score, O=C(CS)NCCCCCCNC(=O)[C@H]1C[C@H]2C(=O)N3CCC[C@H]3C(=O)N2[C@H]1c1ccc(O)cc1 : 0.0749

Memo: CN1C(=O)C2C=CC(C(O)c3ccccc3)N(NC(=O)OC(C)(C)C)C2C1=O (configuration not stated) , reported composite z-score: -0.0645

So, C=C(COC)C(=O)CC[C@@H](OC(=O)c1ccccc1-c1ccccc1C(=O)O)c1ccc(CO)o1 ? Its composite z-score was -0.0994

Consider C=CCN1C(=O)[C@]2(Cc3ccccc31)N=C(c1ccc(OCCCO)cc1)O[C@@H]2c1ccccc1 . Its measured composite z-score is 0.0854
